Entry source: patent US20220274991A1

# target.or.test.system: Ku70/80 (Homo sapiens, UniProt P12956+P13010)
# Construct: purchased AMRI
# Sequence (P12956 whole entry): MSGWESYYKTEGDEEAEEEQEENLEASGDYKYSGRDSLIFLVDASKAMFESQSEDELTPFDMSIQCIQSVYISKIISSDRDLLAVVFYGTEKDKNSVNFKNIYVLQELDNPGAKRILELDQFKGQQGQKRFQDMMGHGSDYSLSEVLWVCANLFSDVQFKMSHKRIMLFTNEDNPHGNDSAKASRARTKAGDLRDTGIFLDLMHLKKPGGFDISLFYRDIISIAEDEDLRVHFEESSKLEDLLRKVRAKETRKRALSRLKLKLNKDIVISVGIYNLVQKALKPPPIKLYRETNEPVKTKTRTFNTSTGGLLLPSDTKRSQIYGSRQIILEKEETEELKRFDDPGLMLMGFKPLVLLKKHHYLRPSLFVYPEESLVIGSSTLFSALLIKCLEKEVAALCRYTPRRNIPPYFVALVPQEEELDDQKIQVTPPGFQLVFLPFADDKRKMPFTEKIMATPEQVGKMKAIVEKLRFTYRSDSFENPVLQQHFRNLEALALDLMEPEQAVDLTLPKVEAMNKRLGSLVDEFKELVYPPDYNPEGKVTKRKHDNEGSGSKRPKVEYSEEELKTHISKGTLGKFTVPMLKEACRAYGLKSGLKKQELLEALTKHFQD
# Sequence (P13010 whole entry): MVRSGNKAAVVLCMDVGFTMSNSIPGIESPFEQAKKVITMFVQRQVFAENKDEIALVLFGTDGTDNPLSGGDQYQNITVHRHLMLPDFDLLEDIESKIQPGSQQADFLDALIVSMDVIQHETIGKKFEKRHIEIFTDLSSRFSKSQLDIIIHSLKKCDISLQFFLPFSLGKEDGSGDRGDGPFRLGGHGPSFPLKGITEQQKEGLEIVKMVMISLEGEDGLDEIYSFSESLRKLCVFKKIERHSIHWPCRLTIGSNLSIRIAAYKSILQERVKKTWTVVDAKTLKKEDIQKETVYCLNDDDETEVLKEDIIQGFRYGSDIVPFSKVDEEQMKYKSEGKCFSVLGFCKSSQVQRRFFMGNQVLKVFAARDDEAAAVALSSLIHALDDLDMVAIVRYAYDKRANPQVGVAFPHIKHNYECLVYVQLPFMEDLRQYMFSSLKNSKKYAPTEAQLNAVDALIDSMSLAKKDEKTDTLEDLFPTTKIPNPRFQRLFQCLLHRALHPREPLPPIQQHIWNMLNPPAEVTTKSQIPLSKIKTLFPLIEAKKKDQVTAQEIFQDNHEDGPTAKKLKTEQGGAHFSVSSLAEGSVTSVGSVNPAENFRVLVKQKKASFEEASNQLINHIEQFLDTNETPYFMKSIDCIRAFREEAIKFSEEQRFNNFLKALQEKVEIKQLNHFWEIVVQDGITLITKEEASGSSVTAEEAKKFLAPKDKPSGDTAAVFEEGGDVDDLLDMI
# experiment.summary: EMSA IC50 (AMRI Ku70/80)
# Assay type: binding
# measurement.conditions: Hill equation fitted
reported.metric: IC50
Report as: number unit

As a guide, the following entries are already answered.
O=c1[nH]c2nc(NCCc3cccnc3)ncc2c(=O)n1-c1cccc(F)c1: 40 µM
O=c1[nH]c2nc(NCCc3ccc(O)c(F)c3)ncc2c(=O)n1-c1cccc(F)c1: 101 µM
O=c1[nH]c2nc(NCCc3cccc(F)c3)ncc2c(=O)n1-c1ccc(Br)cc1: 7.6 µM
CSc1ncc2c(=O)n(-c3ccc(Br)cc3)c(=O)[nH]c2n1: 20 µM
O=c1[nH]c2nc(NCCc3cccc(F)c3)ncc2c(=O)n1-c1nccs1: 43 µM

Ask: State the recorded IC50 for this entry: "COc1c(F)cccc1-n1c(=O)[nH]c2nc(NCCc3cccc(F)c3)ncc2c1=O"
Result: 27 µM

Ask: Can you share its IC50? I mean this compound: "O=c1[nH]c2nc(NCCc3ccc4c(c3)OCO4)ncc2c(=O)n1-c1cccc(F)c1"
Result: 9.1 µM

Ask: Param item = "CCOC(=O)c1cccc(-n2c(=O)[nH]c3nc(NCCc4cccc(F)c4)ncc3c2=O)c1" ; retrieve measured IC50.
Result: 11 µM

Ask: Query (compound): "O=c1[nH]c2nc(NCCc3ccncc3)ncc2c(=O)n1-c1cccc(F)c1" ; field requested: IC50
Result: 18 µM

Ask: Name the recorded IC50 for "O=c1[nH]c2nc(NCCc3cccc(F)c3)ncc2c(=O)n1CCO" .
Result: 8.8 µM

Ask: Look at this compound and give its reported IC50. "CN(CCc1cccc(F)c1)c1ncc2c(=O)n(-c3cccc(F)c3)c(=O)[nH]c2n1"
Result: 142 µM

====

# target.or.test.system: Ku70/80 (Homo sapiens, UniProt P12956+P13010)
# Construct: purchased AMRI
# experiment.summary: EMSA IC50 (AMRI Ku70/80)
# Format: binding
# measurement.conditions: Hill equation fitted
reported.metric: IC50 (µM)
# unit: µM | format: bare number

O=c1[nH]c2nc(NCc3cccc4c(F)cccc34)ncc2c(=O)n1-c1cccc(F)c1: 21
O=c1[nH]c2nc(NCCc3cccc(F)c3)ncc2c(=O)n1-c1ccccn1: 58
O=c1[nH]c2nc(NCC3CCCc4c(F)cccc43)ncc2c(=O)n1-c1cccc(F)c1 (centres unmarked): 20

Ask: Any idea what IC50 was measured for "CC(C)Cn1c(=O)[nH]c2nc(NCCc3cccc(F)c3)ncc2c1=O" ?
Result: 5.3

Ask: Fill in the blank: the reported IC50 of "COc1ccc(CCN(C)c2ncc3c(=O)n(-c4cccc(F)c4)c(=O)[nH]c3n2)cc1OC" is ____.
Result: 184

====

# target.or.test.system: Ku70/80 (Homo sapiens, UniProt P12956+P13010)
# Construct: purchased AMRI
# experiment.summary: EMSA IC50 (AMRI Ku70/80)
# Assay type: binding
# measurement.conditions: Hill equation fitted
The entries below come with measured IC50 values attached.
Record the result as number plus unit.

NS(=O)(=O)c1ccc(CCNc2ncc3c(=O)n(-c4cccc(F)c4)c(=O)[nH]c3n2)cc1: 50 µM
COc1ccc(CCNc2ncc3c(=O)n(-c4cccc(F)c4)c(=O)[nH]c3n2)cc1F: 54 µM
O=c1[nH]c2nc(NCCc3ccccc3)ncc2c(=O)n1-c1cccc(F)c1: 28 µM
O=c1[nH]c2nc(NCCc3cccc(F)c3)ncc2c(=O)n1-c1ccc(N2CCOCC2)c(F)c1: 6.9 µM

Attention now turns to another entry.
Ask: Lab note: need IC50 with Ku70/80 (Homo sapiens, UniProt P12956+P13010) for entry "O=c1[nH]c2nc(NCCc3cccc(F)c3)ncc2c(=O)n1CC1CCNCC1" , please look it up.
Result: 45 µM
